Hello, the source for this data is the supplement of paper PMC10126150, in case you need it.

- System: ATP;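 further: ATP exposure 15 min at 22 °C before imaging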
- assay.summary: switch fluorescence ratio, 500 uM ATP over buffer (Cy3 cluster intensity, sum of 5 cycles each) (fold (ratio)); higher = stronger signal-on switching upon ATP binding; sequences stand for … in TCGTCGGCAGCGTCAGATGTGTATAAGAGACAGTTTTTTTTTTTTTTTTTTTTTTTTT…TC
- experimental.context: aptamer strand: ATP DNA aptamer (quencher-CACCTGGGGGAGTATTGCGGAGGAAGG + anchor), 100 nM annealed; ATP concentration: 500 uM
experimental.endpoint: switch fluorescence ratio

> print(dat)
    entry.sequence      experimental.endpoint  test.value
 1      CTTTCCGAAG  switch fluorescence ratio        2.72
 2      ATTGATTTAA  switch fluorescence ratio       0.999
 3      GAAGGCTCCG  switch fluorescence ratio        1.04
 4      CAGCTTGGGG  switch fluorescence ratio        1.02
 5      TTTTGTACGG  switch fluorescence ratio        1.01
 6      GTGGAATTTT  switch fluorescence ratio        1.01
 7      TCCAATCTCT  switch fluorescence ratio        1.06
 8      AAGTTGTATT  switch fluorescence ratio       0.997
 9      TTGAGGGTGG  switch fluorescence ratio        1.03
10      CGCGTAATAT  switch fluorescence ratio        2.07

====

- Tested on: ATP;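 further: ATP exposure 15 min at 22 °C before imaging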
- assay.summary: switch fluorescence ratio, 500 uM ATP over buffer (Cy3 cluster intensity, sum of 5 cycles each) (fold (ratio)); higher = stronger signal-on switching upon ATP binding; sequences stand for … in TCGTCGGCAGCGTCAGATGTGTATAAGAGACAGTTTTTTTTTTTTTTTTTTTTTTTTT…TC
- experimental.context: aptamer strand: ATP DNA aptamer (quencher-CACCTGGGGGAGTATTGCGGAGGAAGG + anchor), 100 nM annealed; ATP concentration: 500 uM
Decision: switch fluorescence ratio >= 1 yields criterion met, all other cases yield criterion not met.

> print(dat)
    entry.sequence  assay.system              label
 1      GTTCCAGTTT           ATP      criterion met
 2      TCCTCTTAAG           ATP      criterion met
 3      CCTTGCGGGA           ATP      criterion met
 4      CGTGTGGTGT           ATP      criterion met
 5      TCGGCGGTGG           ATP  criterion not met
 6      AAGAGTTCGT           ATP  criterion not met
 7      ACTCCCGAAT           ATP      criterion met
 8      ACACAGTACT           ATP      criterion met
 9      TCGAGGCACT           ATP      criterion met
10      GATGGAGTAA           ATP      criterion met
11      TTACAAGGAC           ATP      criterion met

====

- Test system: ATP;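 further: ATP exposure 15 min at 22 °C before imaging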
- assay.summary: switch fluorescence ratio, 500 uM ATP over buffer (Cy3 cluster intensity, sum of 5 cycles each) (fold (ratio)); higher = stronger signal-on switching upon ATP binding; sequences stand for … in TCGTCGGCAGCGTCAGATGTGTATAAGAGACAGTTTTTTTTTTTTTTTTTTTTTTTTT…TC
- experimental.context: aptamer strand: ATP DNA aptamer (quencher-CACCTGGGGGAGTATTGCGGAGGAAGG + anchor), 100 nM annealed; ATP concentration: 500 uM
Decision: switch fluorescence ratio >= 1 yields Y, all other cases yield N.

> print(dat)
    entry.sequence  label
 1      GTACCTAACT      Y
 2      TTGCTACGGA      Y
 3      CGCATGTTTC      Y
 4      TGTTCAGGGA      Y
 5      TTCGGCGCGG      Y
 6      CCTTAACGGC      Y
 7      TTGATCTTGA      N
 8      GAGGTACGCG      Y
 9      GTCAGGGGGA      Y
10      GGTTGAGTTC      N
11      GCACCATAGC      Y
12      ATGGACACGC      Y
13      AACGTAGGGA      Y
14      AAGGAGTAGC      Y
15      TTTAACCGGT      Y
16      CCATTAATTT      Y
17      CAAGAAGATG      N
18      TGGTTGAGGT      N
19      TTGGTTTTAA      Y
20      ACGGGACATT      Y
21      TACGAATAGA      Y
22      TAGGGCGGGA      N
23      TTGTTAGGAT      Y
